Experiment: in vitro
Assay type: in vitro ADME, human
Details: human, microsomes; HLM 0.50 mg/mL, NADPH 1 mM, 1 μM compound, pH 7.4, 37° C., 60 min; read-out: half-life (t1/2)
Please enter condition met where half-life is greater than or equal to 20 min, and condition not met where it is lower.

Lookup: Does the compound "CCN(CC)C(=O)[C@@H]1C=C2c3cccc4[nH]cc(c34)C[C@H]2N(Cc2cccnc2)C1" have recorded half-life that is 20 min or more?
Found: condition met

Turning to the following compound.
Lookup: Does the compound "CCCN(CC)C(=O)[C@@H]1C=C2c3cccc4[nH]cc(c34)C[C@H]2N(Cc2ccccc2)C1" have recorded half-life that is 20 min or more?
Found: condition not met

###

Assay: in vitro
Type: in vitro ADME, human
Conditions: HLM 0.50 mg/mL, NADPH 1 mM, 1 μM compound, pH 7.4, 37° C., 60 min
Please enter T where half-life (t1/2) is greater than or equal to 10 min, and F where it is lower.

Please review the entries below; each comes with its answer.
Lookup: Does the compound "CCN(CC)C(=O)[C@@H]1C=C2c3cccc4[nH]cc(c34)C[C@H]2N(CCc2ccccn2)C1" have recorded half-life (t1/2) that is 10 min or more?
Found: F

Lookup: Does the compound "CCN(CC)C(=O)[C@@H]1C=C2c3cccc4[nH]cc(c34)C[C@H]2N(CC2CC2)C1" have recorded half-life (t1/2) that is 10 min or more?
Found: T

Lookup: Does the compound "CCCN1C[C@H](C(=O)N2[C@@H](C)C[C@@H]2C)C=C2c3cccc4[nH]cc(c34)C[C@H]21" have recorded half-life (t1/2) that is 10 min or more?
Found: T

Lookup: Does the compound "CCN(CC)C(=O)[C@@H]1C=C2c3cccc4[nH]cc(c34)C[C@H]2N(Cc2ccnc(OC)c2)C1" have recorded half-life (t1/2) that is 10 min or more?
Found: T

Lookup: Does the compound "CCN(CC)C(=O)[C@@H]1C=C2c3cccc4[nH]cc(c34)C[C@H]2N(CCc2ccc(OC)cc2)C1" have recorded half-life (t1/2) that is 10 min or more?
Found: F

***
Lookup: Does the compound "CC[C@@H](C)NC(=O)[C@H]1C=C2c3cccc4[nH]cc(c34)C[C@H]2N(CC)C1" have recorded half-life (t1/2) that is 10 min or more?
Found: F

Lookup: Does the compound "CCCN1C[C@H](C(=O)N(CC)CC)C=C2c3cccc4[nH]cc(c34)C[C@H]21" have recorded half-life (t1/2) that is 10 min or more?
Found: T

Lookup: Does the compound "CCN(CC)C(=O)[C@@H]1C=C2c3cccc4[nH]cc(c34)C[C@H]2NC1" have recorded half-life (t1/2) that is 10 min or more?
Found: T

Lookup: Does the compound "CCN(CC)C(=O)[C@@H]1C=C2c3cccc4[nH]cc(c34)C[C@H]2N(CCc2cccc(OC)c2)C1" have recorded half-life (t1/2) that is 10 min or more?
Found: F

###

Target: 5-HT1B receptor (Homo sapiens, UniProt P28222)
Construct: expressed in transfected cells
Sequence (P28222 whole entry): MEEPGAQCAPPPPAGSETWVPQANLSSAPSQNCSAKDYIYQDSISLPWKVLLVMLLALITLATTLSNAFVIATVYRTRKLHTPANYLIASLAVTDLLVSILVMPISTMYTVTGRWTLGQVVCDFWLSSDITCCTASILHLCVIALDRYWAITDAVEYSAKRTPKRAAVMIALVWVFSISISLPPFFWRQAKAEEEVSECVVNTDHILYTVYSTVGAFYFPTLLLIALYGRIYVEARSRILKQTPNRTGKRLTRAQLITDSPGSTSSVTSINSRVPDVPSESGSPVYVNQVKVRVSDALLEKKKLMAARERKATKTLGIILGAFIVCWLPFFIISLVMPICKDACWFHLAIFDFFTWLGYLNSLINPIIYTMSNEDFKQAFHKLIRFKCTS
Assay: cAMP accumulation functional assay at 5-HT1B
Type: cell-based
Conditions: agonist, cAMP accumulation, max dose; read-out: 5-HT1B % Act @ Max Dose
Catalogue of Emax values
Write the value in % as a bare number.

Observe how each entry below is paired with its result.
Lookup: Recall and state the measured Emax for "CC[C@@H](C)NC(=O)[C@@H]1C=C2c3cccc4[nH]cc(c34)C[C@H]2N(CCC(F)(F)F)C1" .
Found: 62.1

Lookup: Recall and state the measured Emax for "CCN(CC)C(=O)[C@@H]1C=C2c3cccc4[nH]cc(c34)C[C@H]2N(Cc2ccncc2)C1" .
Found: 89.1

Lookup: Recall and state the measured Emax for "CCCN1C[C@H](C(=O)N2[C@@H](C)C[C@@H]2C)C=C2c3cccc4[nH]c(Br)c(c34)C[C@H]21" .
Found: 76.2

Lookup: Recall and state the measured Emax for "CCN(CC)C(=O)[C@@H]1C=C2c3cccc4[nH]cc(c34)C[C@H]2N(CCC(F)(F)F)C1" .
Found: 95.5

Lookup: Recall and state the measured Emax for "CCN(CC)C(=O)[C@@H]1C=C2c3cccc4[nH]cc(c34)C[C@H]2N(Cc2cccnc2)C1" .
Found: 82.5

***
Lookup: Recall and state the measured Emax for "CCN(CC)C(=O)[C@@H]1C=C2c3cccc4[nH]cc(c34)C[C@H]2N(Cc2ccc(F)cc2)C1" .
Found: 37.9

Lookup: Recall and state the measured Emax for "CN1C[C@H](C(=O)N(CCF)CCF)C=C2c3cccc4[nH]cc(c34)C[C@H]21" .
Found: 94.7

Recorded values, source patent US20260317319A1.
